Biological target: T1, biotinylated goat anti-human kappa light chain
T1 construct: positive control of the ELISA
Assay: ELISA, positive control; further: test concentration or dose not given here
Protocol: The binding of ACVR2A-specific monoclonal antibodies to human ACVR2A, mouse ACVR2A, biotinylated goat anti-human kappa light chain (positive control) and human Fc (negative control) were determined by ELISA.
ENDPOINT NAME: optical density
Please state the value followed by its unit.

Would you mind telling me what optical density value was observed for 366_D01 (antibody, V domains shown, Group I) VH: EVQLLESGGGLVQPGGSLRLSCAASGFTFSSYGMHWVRQAPGKGLEWVSSINYNGGYTGYADSVKGRFTISRDNSKNTLYLQMNSLRAEDTAVYYCARAANWHDTHLDYWGQGTLVTVSS VL: DIQMTQSPSSLSASVGDRVTITCRASQSILTYVNWYQQKPGKAPKLLIYAATSRASGVPSRFSGSGSGTDFTLTISSLQPEDFATYYCQQSYENPLTFGGGTKVEIK ? 3.48 OD

Would you mind telling me what optical density value was observed for 368_E08 (antibody, V domains shown, Group II) VH: EVQLLESGGGLVQPGGSLRLSCAASGFTFDSYGMHWVRQAPGKGLEWVANINYNSGYTGYADSVKGRFTISRDNSKNTLYLQMNSLRAEDTAVYYCARAATWHDTHLDYWGQGTLVTVSS VL: DIQMTQSPSSLSASVGDRVTITCRASQSILSYVNWYQQKPGKAPKLVIYAATSLHSGVPSRFSGSGSGTDFTLTISSLQPEDFATYYCQQSYETPLTFGGGTKVEIK ? 3.5 OD
